Value source: patent US20250163038A1

Provide the recorded pIC50 for the entries that follow.
Molecular target: Recombinant human Cbl-b (aa 36-427) (Homo sapiens)
Experiment: Cbl-b Biochemical Assay (TR-FRET)
Details: read-out: TR-FRET hCbl-b IC50
pIC50: −log10 of the molar value.

(Q) Respond only with pIC50 recorded for "Cn1cnnc1-c1cc(F)ccc1-c1cccc(-c2nc3cc(CN[C@@H]4CCC[C@@]4(C)O)cc(C(F)(F)F)c3o2)c1"
(A) > 6.70

(Q) Respond only with pIC50 recorded for "CN(Cc1cc2nc(-c3cccc(-c4ccc(F)cc4-c4nncn4C)c3)oc2c(F)c1F)[C@@H]1CCC[C@@H]1O"
(A) > 6.70

(Q) Respond only with pIC50 recorded for "Cn1cnnc1-c1cc(F)ccc1-c1cccc(-c2nc3cc(CNCC4(O)CC4)cc(C(F)(F)F)c3[nH]2)c1"
(A) > 6.70

(Q) Respond only with pIC50 recorded for "CN(C)CCOc1ccc2nc(-c3cccc(C4(Cc5nncn5C)COC4)c3)[nH]c2c1C(F)(F)F"
(A) 4.30 to 5.00

(Q) Respond only with pIC50 recorded for "C[C@H](Cc1nncn1C)c1cccc(-c2nc3ccc(Br)c(C(F)(F)F)c3[nH]2)c1"
(A) 6.00 to 6.70

(Q) Respond only with pIC50 recorded for "CCN(CC[C@@H](O)C(F)(F)F)Cc1cc(C(F)(F)F)c2oc(-c3cccc(-c4ccc(F)cc4-c4nncn4C)c3)nc2c1"
(A) > 6.70

(Q) Respond only with pIC50 recorded for "Cc1cc(CO)cc2nc(-c3cccc(-c4ccc(F)cc4-c4nncn4C)c3)oc12"
(A) 5.00 to 6.00

(Q) Respond only with pIC50 recorded for "COc1cc(CO)cc2nc(-c3cccc(-c4ccc(F)cc4-c4nncn4C)c3)oc12"
(A) 5.00 to 6.00

(Q) Respond only with pIC50 recorded for "Cn1cnnc1CC1(c2cccc(-c3nc4cccc(C(F)(F)F)n4n3)c2)COC1"
(A) 4.30 to 5.00

(Q) Respond only with pIC50 recorded for "COC(=O)c1cc(OC)c2oc(-c3cccc([C@]4(c5nncn5C)C[C@@H](C)C4)c3)nc2c1"
(A) 4.30 to 5.00

(Q) Respond only with pIC50 recorded for Cn1cnnc1-c1cc(F)ccc1-c1cccc(-c2nc3cc(CN[C@H]4CC[C@@H]4O)cc(C(F)(F)F)c3o2)c1 (single isomer, unassigned) [ADH-1]
(A) > 6.70

(Q) Respond only with pIC50 recorded for "Cn1cnnc1-c1cc(F)ccc1-c1cccc(-c2nc3cc(N[C@@H]4CCC[C@@H]4O)cc(C(F)(F)F)c3o2)c1"
(A) 6.00 to 6.70

(Q) Respond only with pIC50 recorded for "CN(Cc1cc(C(F)(F)F)c2oc(-c3cc(-c4ccc(F)cc4-c4nncn4C)cc(C4CC4)n3)nc2c1)[C@@H]1CCC[C@@H]1O"
(A) > 6.70

(Q) Respond only with pIC50 recorded for "Cn1cnnc1-c1ccccc1-c1cccc(-c2cc(C(F)(F)F)cn(C)c2=O)c1"
(A) 4.30 to 5.00

(Q) Respond only with pIC50 recorded for "C[C@H](O)CNCc1cc(C(F)(F)F)c2oc(-c3cccc(-c4ccc(F)cc4-c4nncn4C)c3)nc2c1"
(A) > 6.70

(Q) Respond only with pIC50 recorded for "Cn1cnnc1-c1cc(F)ccc1-c1cccc(-c2nc3cc(CO)cc(C(C)(F)F)c3o2)c1"
(A) > 6.70

* * *

Biological target: Recombinant human c-Cbl (aa 47-435) (Homo sapiens)
Sequence (P22681 47-435): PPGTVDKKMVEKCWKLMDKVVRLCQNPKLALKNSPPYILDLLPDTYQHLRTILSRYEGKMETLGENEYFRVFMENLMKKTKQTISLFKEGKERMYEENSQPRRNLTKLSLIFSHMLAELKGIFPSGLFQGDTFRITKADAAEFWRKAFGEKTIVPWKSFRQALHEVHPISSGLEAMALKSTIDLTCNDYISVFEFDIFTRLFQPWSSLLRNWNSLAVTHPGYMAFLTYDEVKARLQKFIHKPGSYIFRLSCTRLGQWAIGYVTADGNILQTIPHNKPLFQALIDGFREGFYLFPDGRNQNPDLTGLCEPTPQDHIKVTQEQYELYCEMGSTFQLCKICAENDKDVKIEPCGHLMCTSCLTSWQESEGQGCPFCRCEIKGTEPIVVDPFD
Assay: c-Cbl Biochemical Assay (TR-FRET)
Conditions: hc-Cbl Biochemical Assay (TR-FRET); read-out: TR-FRET hcCbl IC50
pIC50: −log10 of the molar value.
Measured Endpoint: pIC50

(Q) Respond only with pIC50 recorded for Cn1cnnc1-c1cc(F)ccc1-c1cccc(-c2nc3cc(CNCC4(C#N)CCCC4)cc(C(F)(F)F)c3o2)c1 [CX-1]
(A) > 6.70

(Q) Respond only with pIC50 recorded for COC[C@H](C)NCc1cc(C)c2oc(-c3cc(-c4ccc(F)cc4-c4nncn4C)cc(C4CC4)n3)nc2c1 [AGK-1]
(A) > 6.70

(Q) Respond only with pIC50 recorded for C[C@H](Cc1nncn1C)c1cccc(-c2nc3cccc(C(F)(F)F)c3[nH]2)c1 [ABD-9]
(A) 4.30 to 5.00

(Q) Respond only with pIC50 recorded for Cc1cc(CNCC(C)(C)O)cc2nc(-c3cccc(-c4ccc(F)cc4-c4nncn4C)c3)oc12 [IK-1]
(A) > 6.70

(Q) Respond only with pIC50 recorded for Cn1cnnc1-c1cc(F)ccc1-c1cccc(-c2nc3cc(CN[C@]4(C)CCC[C@@H]4O)cc(C(F)(F)F)c3o2)c1 (racemic) [IM-8]
(A) > 6.70

(Q) Respond only with pIC50 recorded for Cn1cnnc1-c1cc(F)ccc1-c1cccc(-c2nc3cc(CN[C@H]4CCC[C@H]4O)cc(C(F)(F)F)c3o2)c1 [HI-2]
(A) > 6.70

(Q) Respond only with pIC50 recorded for Cn1cnnc1-c1cc(F)ccc1-c1cccc(-c2nc3cc(CN[C@@H]4CCC[C@@H]4O)ccc3[nH]2)c1 [BY-1]
(A) 5.00 to 6.00

(Q) Respond only with pIC50 recorded for Cn1cnnc1CC1(c2cccc(-c3cc(C4CC4)c[nH]c3=O)c2)COC1 [ABX-3]
(A) 4.30 to 5.00

(Q) Respond only with pIC50 recorded for CN(Cc1cc(C(F)(F)F)c2oc(-c3cccc(-c4ccc(F)cc4-c4nncn4C)c3)nc2c1)CC1CCC1 [IE-1]
(A) 6.00 to 6.70

(Q) Respond only with pIC50 recorded for Cn1cnnc1-c1cc(F)ccc1-c1cccc(-c2nc3cc(CN4CC[C@H](O)C4)cc(C(F)(F)F)c3o2)c1 [AD-2]
(A) 5.00 to 6.00

* * *

Provide the recorded IC50 for the entries that follow.
Target: Recombinant human Cbl-b (aa 36-427) (Homo sapiens, UniProt Q13191)
Sequence (Q13191 36-427): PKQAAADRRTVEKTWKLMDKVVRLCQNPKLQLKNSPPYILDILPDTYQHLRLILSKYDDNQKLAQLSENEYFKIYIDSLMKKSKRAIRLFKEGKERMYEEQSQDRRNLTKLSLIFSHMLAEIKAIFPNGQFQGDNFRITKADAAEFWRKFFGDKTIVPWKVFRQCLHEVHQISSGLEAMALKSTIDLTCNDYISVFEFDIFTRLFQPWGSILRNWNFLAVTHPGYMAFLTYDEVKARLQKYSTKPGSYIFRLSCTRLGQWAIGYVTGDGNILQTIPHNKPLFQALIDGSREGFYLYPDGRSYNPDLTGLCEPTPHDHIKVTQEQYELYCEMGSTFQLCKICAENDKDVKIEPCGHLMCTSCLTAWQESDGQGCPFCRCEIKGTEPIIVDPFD
Test: Cbl-b Biochemical Assay (TR-FRET)
Conditions: read-out: TR-FRET hCbl-b IC50

(Q) Respond only with IC50 recorded for "COc1cc(CN[C@@H]2CCC[C@]2(C)O)cc2nc(-c3cccc(-c4ccc(F)cc4-c4nncn4C)c3)oc12"
(A) 0.2 to 1 µM

(Q) Respond only with IC50 recorded for "C[C@H]1CCCN(Cc2ccc3oc(-c4cc(-c5ccc(C#N)cc5-c5nncn5C)cc(C5CC5)n4)nc3c2)C1"
(A) < 0.2 µM

(Q) Respond only with IC50 recorded for "Cn1cnnc1-c1cc(F)ccc1-c1cccc(-c2nc3cc(CN[C@@H]4CCC[C@@H]4O)ccc3[nH]2)c1"
(A) < 0.2 µM

(Q) Respond only with IC50 recorded for "COC(C)(C)CNCc1cc(C(F)(F)F)c2oc(-c3cccc(-c4ccc(F)cc4-c4nncn4C)c3)nc2c1"
(A) < 0.2 µM

(Q) Respond only with IC50 recorded for "Cn1cnnc1-c1ccccc1-c1cccc(-c2nc3ccc(OCCN4CCCC4)c(C(F)(F)F)c3[nH]2)c1"
(A) 10 to 50 µM

(Q) Respond only with IC50 recorded for "COCCCNCc1cc(OC)c2oc(-c3cccc(-c4ccc(F)cc4-c4nncn4C)c3)nc2c1"
(A) < 0.2 µM

(Q) Respond only with IC50 recorded for "Cn1cnnc1-c1cc(F)ccc1-c1cccc(-c2nc3cc(CN)cc(C(F)(F)F)c3o2)c1"
(A) < 0.2 µM

(Q) Respond only with IC50 recorded for "Cn1cnnc1CC1(c2cccc(-c3nc4ccc(Br)c(C(F)(F)F)c4[nH]3)c2)COC1"
(A) 1 to 10 µM

(Q) Respond only with IC50 recorded for "COC(=O)c1cc(C(F)(F)F)c2oc(-c3cccc(-c4ccccc4-c4nncn4C)c3)nc2c1"
(A) 10 to 50 µM

(Q) Respond only with IC50 recorded for "Cn1cnnc1-c1cc(F)ccc1-c1cc(-c2nc3cc(CN4CC(F)C4)cc(F)c3o2)nc(C2CC2)c1"
(A) 1 to 10 µM

(Q) Respond only with IC50 recorded for "Cn1cnnc1-c1cc(F)ccc1-c1cccc(-c2nc3cc(CN[C@@H]4CCC[C@@H]4O)ccc3s2)c1"
(A) < 0.2 µM

(Q) Respond only with IC50 recorded for "COCCNCc1cc(C(F)(F)F)c2oc(-c3cccc([C@]4(c5nncn5C)C[C@@H](C)C4)c3)nc2c1"
(A) < 0.2 µM

(Q) Respond only with IC50 recorded for "COCCN(Cc1cc(C(F)(F)F)c2oc(-c3cccc(-c4ccc(F)cc4-c4nncn4C)c3)nc2c1)CC(C)(C)O"
(A) < 0.2 µM

(Q) Respond only with IC50 recorded for "Cn1cnnc1-c1cc(F)ccc1-c1cccc(-c2nc3cc(CNCC4(O)CC4)cc(C(F)(F)F)c3o2)c1"
(A) < 0.2 µM

(Q) Respond only with IC50 recorded for "COC(=O)c1cc2nc(-c3cc(-c4ccc(F)cc4-c4nncn4C)cc(C4CC4)n3)oc2c(F)c1F"
(A) 1 to 10 µM

(Q) Respond only with IC50 recorded for "Cn1cnnc1-c1cc(F)ccc1-c1cccc(-c2nc3cc(CNCC(C)(C)O)ccc3[nH]2)c1"
(A) 0.2 to 1 µM

(Q) Respond only with IC50 recorded for "C[C@@H](O)CNCc1cc(C(F)(F)F)c2oc(-c3cccc(-c4ccc(F)cc4-c4nncn4C)c3)nc2c1"
(A) < 0.2 µM

(Q) Respond only with IC50 recorded for "Cn1cnnc1CC1(c2cccc(-c3nc4c(C(F)(F)F)cccc4s3)c2)COC1"
(A) 10 to 50 µM

(Q) Respond only with IC50 recorded for "C[C@@H]1CN(Cc2cc(C(F)(F)F)c3oc(-c4cccc(-c5ccccc5-c5nncn5C)c4)nc3c2)CCO1"
(A) 0.2 to 1 µM

(Q) Respond only with IC50 recorded for "C[C@H]1CCCN(Cc2cc(C(F)(F)F)c3oc(-c4cccc(-c5ccccc5-c5nncn5C)c4)nc3c2)C1"
(A) 0.2 to 1 µM

(Q) Respond only with IC50 recorded for "CCOCCNCc1cc(OC)c2oc(-c3cccc(-c4ccc(F)cc4-c4nncn4C)c3)nc2c1"
(A) < 0.2 µM

(Q) Respond only with IC50 recorded for "COC1(CNCc2cc(C(F)(F)F)c3oc(-c4cccc(-c5ccc(F)cc5-c5nncn5C)c4)nc3c2)CCC1"
(A) < 0.2 µM

(Q) Respond only with IC50 recorded for "Cn1cnnc1-c1cc(F)ccc1-c1cc(-c2nc3cc(CNC(C)(C)C4CCC4)c(F)c(F)c3o2)nc(C2CC2)c1"
(A) < 0.2 µM

(Q) Respond only with IC50 recorded for "COc1cc(CNCCOC(C)C)cc2nc(-c3cccc(-c4ccc(F)cc4-c4nncn4C)c3)oc12"
(A) < 0.2 µM

(Q) Respond only with IC50 recorded for CC(c1cc(C(F)(F)F)c2oc(-c3cccc(C4(Cc5nncn5C)COC4)c3)nc2c1)N1CCC2(CC2)C1 (stereo not shown)
(A) < 0.2 µM

(Q) Respond only with IC50 recorded for "Cn1cnnc1[C@]1(c2cccc(-c3nc4cc(CNCC5CCC5)cc(C(F)(F)F)c4o3)c2)C[C@H](C)C1"
(A) < 0.2 µM

(Q) Respond only with IC50 recorded for "COCCNCc1cc(C2CC2)c2oc(-c3cccc(-c4ccc(F)cc4-c4nncn4C)c3)nc2c1"
(A) < 0.2 µM

(Q) Respond only with IC50 recorded for "Cn1cnnc1-c1cc(F)ccc1-c1cccc(-c2nc3cc(CNCC4(O)CCCC4)cc(C(F)(F)F)c3[nH]2)c1"
(A) < 0.2 µM
